Each entry below carries its reported pIC50.
test system: P. falciparum 3D7 parasites; test: Asexual erythrocytic-stage SYBR Green I proliferation assay, 1536-well; format: cell-based, Plasmodium falciparum; conditions: Plasmodium falciparum, 3D7, read-out: P. falciparum (blood) IC50, Table S1, validation set of 50 antimalarials
pIC50: −log10 of the molar value.

Worked examples, 2 compounds total:
• O=C1C(O)=C([C@H]2CC[C@H](c3ccc(Cl)cc3)CC2)C(=O)c2ccccc21 [Atovaquone, reference compound] = > 9.40
• O=CN(O)CCCP(=O)(O)O [Fosmidomycin, reference compound] = < 5.00

## Task Write down the reported pIC50 (system: P. falciparum 3D7 parasites) of Cc1cc(NS(=O)(=O)c2ccc(N)cc2)no1
## Result < 5.00

## Task Write down the reported pIC50 (system: P. falciparum 3D7 parasites) of CCN(CC)Cc1cc(Nc2ccnc3cc(Cl)ccc23)ccc1O [Amodiaquine, reference compound]
## Result < 4.20

## Task Write down the reported pIC50 (system: P. falciparum 3D7 parasites) of CO[C@H]1O[C@@H]2O[C@@]3(C)CC[C@H]4[C@H](C)CC[C@@H]([C@H]1C)[C@@]24OO3 [Artemether, reference compound]
## Result > 9.40

## Task Write down the reported pIC50 (system: P. falciparum 3D7 parasites) of Nc1ccc(S(=O)(=O)c2ccc(N)cc2)cc1 [Dapsone, reference compound]
## Result < 4.20
